Reference source for all entries: ChEMBL document CHEMBL3600362

Kindly state log10 EC50 for each of the entries shown.
molecular target: Thyrotropin-releasing hormone receptor (Mus musculus); assay: Agonist activity at mouse TRH-R1 expressed in HEK293 cells assessed as induction of changes in intracellular Ca2+ level by FLIPR method; type: functional, cell-based
Sequence (P21761 whole entry): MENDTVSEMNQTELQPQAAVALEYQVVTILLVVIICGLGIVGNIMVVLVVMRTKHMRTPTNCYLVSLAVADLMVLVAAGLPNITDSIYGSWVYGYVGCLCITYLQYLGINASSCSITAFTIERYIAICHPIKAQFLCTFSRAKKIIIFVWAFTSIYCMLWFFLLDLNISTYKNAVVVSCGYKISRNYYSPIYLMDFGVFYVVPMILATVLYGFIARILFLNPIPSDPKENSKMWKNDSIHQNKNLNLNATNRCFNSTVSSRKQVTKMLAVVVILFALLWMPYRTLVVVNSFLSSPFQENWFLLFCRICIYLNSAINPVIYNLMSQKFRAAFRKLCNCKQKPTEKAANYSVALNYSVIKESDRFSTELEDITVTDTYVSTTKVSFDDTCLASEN
Log10 applied to EC50; unit prior to transform: nM.

Batch lookup, log10 EC50 per entry.
1. NC(=O)[C@@H]1CCCN1C(=O)[C@H](Cc1nc[nH]c1Cl)NC(=O)c1cnccn1
2. NC(=O)[C@@H]1CCCN1C(=O)[C@H](Cc1nc(Br)[nH]c1Br)NC(=O)c1nccnc1N
3. Cc1cnc(C(=O)N[C@@H](Cc2nc(Br)[nH]c2Br)C(=O)N2CCC[C@H]2C(N)=O)cn1
4. CCCc1nc(C[C@H](NC(=O)c2cnccn2)C(=O)N2CCC[C@H]2C(N)=O)c[nH]1
5. CCn1c(I)nc(C[C@H](NC(=O)c2cnccn2)C(=O)N2CCC[C@H]2C(N)=O)c1I

// result
1: 4.29; 2: 3.15; 3: 1.89; 4: 2.18; 5: 3.86

Batch lookup, log10 EC50 per entry.
1. Cc1cnc(C(=O)N[C@@H](Cc2nc[nH]c2Br)C(=O)N2CCC[C@H]2C(N)=O)cn1
2. CCCc1nc(C[C@H](NC(=O)C2CCCCN2)C(=O)N2CCC[C@H]2C(N)=O)c[nH]1 (single isomer, unassigned)
3. NC(=O)[C@@H]1CCCN1C(=O)[C@H](Cc1nc[nH]c1Br)NC(=O)c1nccnc1N
4. NC(=O)[C@@H]1CCCN1C(=O)[C@H](Cc1nc(I)n(Cc2ccccc2)c1I)NC(=O)c1cnccn1

// result
[2.70, 2.97, 2.46, 2.99]

----------
system: Mus musculus; assay: Reduction in pentobarbital-induced sleeping time in Swiss mouse at 10 umol/kg, iv; assay type: functional
Kindly state inhibition in vivo at 10 µmol/kg for each of the entries shown.
Give bare numbers, in %.

Examples from the recorded data:
Cn1cnc(C[C@H](NC(=O)c2cnccn2)C(=O)N2CCC[C@H]2C(N)=O)c1Br: 32.3
NC(=O)[C@@H]1CCCN1C(=O)[C@H](Cc1nc(I)n(Cc2ccccc2)c1I)NC(=O)c1cnccn1: 74.8
NC(=O)[C@@H]1CCCN1C(=O)[C@H](Cc1nc[nH]c1Cl)NC(=O)c1cnccn1: 29.8
NC(=O)[C@@H]1CCCN1C(=O)[C@H](Cc1nc(I)[nH]c1I)NC(=O)c1cnccn1: 1.5
CCCc1nc(C[C@H](NC(=O)c2cnc(C)cn2)C(=O)N2CCC[C@H]2C(N)=O)c[nH]1: 4.1
Cc1cnc(C(=O)N[C@@H](Cc2nc(Br)[nH]c2Br)C(=O)N2CCC[C@H]2C(N)=O)cn1: 29

Batch lookup, inhibition in vivo at 10 µmol/kg per entry.
1. NC(=O)[C@@H]1CCCN1C(=O)[C@H](Cc1c[nH]cn1)NC(=O)[C@@H]1CCC(=O)N1
2. NC(=O)[C@@H]1CCCN1C(=O)[C@H](Cc1nc[nH]c1Br)NC(=O)c1nccnc1N

// result
1: 51.1; 2: 29.5

----------
target: Thyrotropin-releasing hormone receptor 2 (Mus musculus, UniProt Q9ERT1); assay: Agonist activity at mouse TRH-R2 expressed in HEK293 cells assessed as induction of changes in intracellular Ca2+ level by FLIPR method; type: functional, cell-based
Sequence (Q9ERT1 whole entry): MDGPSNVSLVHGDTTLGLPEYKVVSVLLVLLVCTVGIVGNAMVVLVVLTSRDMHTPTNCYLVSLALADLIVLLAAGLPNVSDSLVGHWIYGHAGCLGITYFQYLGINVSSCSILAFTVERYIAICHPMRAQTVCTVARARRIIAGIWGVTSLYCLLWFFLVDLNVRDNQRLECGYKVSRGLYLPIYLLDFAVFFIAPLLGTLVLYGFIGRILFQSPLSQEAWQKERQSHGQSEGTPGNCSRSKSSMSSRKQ
pEC50: −log10 of the molar value.
// label = Yes if pEC50 is not less than 7, otherwise No

CCCc1nc(C[C@H](NC(=O)c2cnc(C)cn2)C(=O)N2CCC[C@H]2C(N)=O)c[nH]1: Yes
NC(=O)[C@@H]1CCCN1C(=O)[C@H](Cc1nc[nH]c1Br)NC(=O)c1nccnc1N: Yes
Cc1cnc(C(=O)N[C@@H](Cc2nc(I)n(Cc3ccccc3)c2I)C(=O)N2CCC[C@H]2C(N)=O)cn1: Yes
NC(=O)[C@@H]1CCCN1C(=O)[C@H](Cc1nc(Br)[nH]c1Br)NC(=O)c1cnccn1: Yes
NC(=O)[C@@H]1CCCN1C(=O)[C@H](Cc1nc(Br)[nH]c1Br)NC(=O)c1nccnc1N: No
NC(=O)[C@@H]1CCCN1C(=O)[C@H](Cc1nc[nH]c1Br)NC(=O)c1cnccn1: Yes
CC(C)c1nc(C[C@H](NC(=O)C2CCCCN2)C(=O)N2CCC[C@H]2C(N)=O)c[nH]1 (single isomer, unassigned): No
NC(=O)[C@@H]1CCCN1C(=O)[C@H](Cc1cnc[nH]1)NC(=O)[C@@H]1CCC(=O)N1: Yes

// query Is reported pEC50 greater than or equal to 7 here: `NC(=O)[C@@H]1CCCN1C(=O)[C@H](Cc1nc(I)n(Cc2ccccc2)c1I)NC(=O)c1cnccn1`
// result Yes

// query Is reported pEC50 greater than or equal to 7 here: `NC(=O)[C@@H]1CCCN1C(=O)[C@H](Cc1nc(I)[nH]c1I)NC(=O)c1cnccn1`
// result No

// query Is reported pEC50 greater than or equal to 7 here: `CCn1c(I)nc(C[C@H](NC(=O)c2cnccn2)C(=O)N2CCC[C@H]2C(N)=O)c1I`
// result No

// query Is reported pEC50 greater than or equal to 7 here: `Cc1cnc(C(=O)N[C@@H](Cc2nc[nH]c2Br)C(=O)N2CCC[C@H]2C(N)=O)cn1`
// result Yes
